- measured on: murine SR-BI (Mus musculus, UniProt Q61009)
- Construct: expressed in transfected cells; host or cells: ldlA-7 (LDL receptor deficient Chinese hamster ovary cells)
- Sequence (Q61009 whole entry): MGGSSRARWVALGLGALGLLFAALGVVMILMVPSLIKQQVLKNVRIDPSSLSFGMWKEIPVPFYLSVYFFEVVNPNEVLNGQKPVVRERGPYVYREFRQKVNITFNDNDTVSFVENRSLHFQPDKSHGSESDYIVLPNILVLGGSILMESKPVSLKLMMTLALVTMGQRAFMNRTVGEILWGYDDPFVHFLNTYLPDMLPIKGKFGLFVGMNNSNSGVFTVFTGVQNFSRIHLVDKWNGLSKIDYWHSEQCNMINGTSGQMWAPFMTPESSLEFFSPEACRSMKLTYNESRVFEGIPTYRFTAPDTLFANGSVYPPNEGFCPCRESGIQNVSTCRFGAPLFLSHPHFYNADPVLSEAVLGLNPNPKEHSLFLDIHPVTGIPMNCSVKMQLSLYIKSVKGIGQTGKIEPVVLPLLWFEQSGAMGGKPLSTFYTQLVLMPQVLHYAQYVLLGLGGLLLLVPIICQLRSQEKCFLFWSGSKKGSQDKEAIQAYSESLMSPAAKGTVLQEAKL
- assay summary: Efflux of [3H]cholesterol from ldlA[mSR-BI] cells to HDL
- Type: cell-based
- assay conditions: inhibition of efflux to HDL, mean ± SD, n=3
- Procedure: Cells were pre-incubated with BLTs for 1 hr (or 2.5 hrs for transferrin, EGF and cholera toxin uptake experiments) and all the experiments were performed at 37° C. Detailed characterization of the BLTs and their effects was performed with compounds whose identities and purities were confirmed by LC-MS. […]
pEC50: −log10 of the molar value.
pEC50 below 5 gives NO; pEC50 at or above it gives YES.

These recorded examples may help you get a feel for the data.
>>> qualitative_label("c1ccc(-c2noc(-c3ccccc3)c3cccc2-3)cc1")
"NO"
>>> qualitative_label("CCCCOCCC1CCC/C1=N\\NC(N)=S (centres unmarked)")
"YES"
>>> qualitative_label("COc1ccccc1NC(=O)Nc1ccc2ccccc2c1")
"NO"

Q: Is pEC50 at least 5? Consider C/C(=N\NC(=O)c1ccccc1I)c1ccc(N)cc1
A: NO

Q: Is pEC50 at least 5? Consider CCCCCCC1CCC/C1=N\NC(N)=S (centres unmarked)
A: YES
